// Bcl-2 (Homo sapiens (Human), UniProt P10415) IC50 records
readoutName: IC50 (nM)

molecule: CCCCN(CCCC)C(=O)c1nn(-c2ccc(C(=O)NS(=O)(=O)c3ccc4ccccc4c3)cc2C(=O)N2Cc3ccccc3C[C@H]2COCCO)c(C)c1Cl
targetOfAssay: Bcl-2 (Homo sapiens (Human), UniProt P10415)
Sequence (P10415 whole entry): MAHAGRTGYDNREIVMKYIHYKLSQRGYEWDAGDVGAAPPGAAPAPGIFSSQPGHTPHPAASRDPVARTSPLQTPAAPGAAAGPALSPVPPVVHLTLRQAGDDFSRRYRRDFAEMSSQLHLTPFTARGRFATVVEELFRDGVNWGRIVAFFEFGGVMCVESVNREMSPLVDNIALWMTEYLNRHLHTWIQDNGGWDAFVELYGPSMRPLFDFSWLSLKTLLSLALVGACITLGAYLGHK
reported: 50
--
molecule: CCCCN(CCCC)C(=O)c1nn(-c2ccc(C(=O)NS(=O)(=O)c3ccc4c(Cl)cccc4c3)cc2C(=O)N2CCc3ccccc3C2)c(C)c1Cl
targetOfAssay: Bcl-2 (Homo sapiens (Human), UniProt P10415)
reported: 200
--
molecule: CCCCN(CCCC(F)(F)F)C(=O)c1nn(-c2ccc(C(=O)NS(=O)(=O)c3ccc4ccccc4c3)cc2C(=O)N2CCc3ccccc3C2)c(C)c1Cl
targetOfAssay: Bcl-2 (Homo sapiens (Human), UniProt P10415)
reported: 110
--
molecule: CCCCN(CCCC)C(=O)c1nn(-c2ccc(C(=O)NS(=O)(=O)c3ccc4ccccc4c3)cc2C(=O)N2Cc3ccccc3C[C@@H]2C(=O)O)c(C)c1Cl
targetOfAssay: Bcl-2 (Homo sapiens (Human), UniProt P10415)
reported: 1650
--
molecule: CCCCN(CCCC)C(=O)c1nn(-c2ccc(C(=O)NS(=O)(=O)c3ccc4ccc(Cl)cc4c3)cc2C(=O)N2CCc3ccccc3C2)c(C)c1Cl
targetOfAssay: Bcl-2 (Homo sapiens (Human), UniProt P10415)
reported: 90
--
molecule: CCCCN(C(=O)c1nn(-c2ccc(C(=O)NS(=O)(=O)c3ccc4ccccc4c3)cc2C(=O)N2CCc3ccccc3C2)c(C)c1Cl)c1ccc2c(c1)OCCO2
targetOfAssay: Bcl-2 (Homo sapiens (Human), UniProt P10415)
reported: 70

----------
Let's look at some compounds and their measured IC50.
- targetOfAssay: Bcl-2 (Homo sapiens (Human))
- assayMethodText: Bcl-2/Bim Fluorescence Polarization Assay (FPA)
- Format: binding
readoutName: IC50 (µM)

molecule: CCCCN(CCCC)C(=O)c1nn(-c2ccc(C(=O)NS(=O)(=O)c3ccc4ccccc4c3)cc2C(=O)N2Cc3ccccc3C[C@H]2CO)c(C)c1Cl
unitAbbrev: µM
reported: 0.05

molecule: CCCCN(CCCC)C(=O)c1nn(-c2ccc(C(=O)NS(=O)(=O)c3ccc4ccccc4c3)cc2C(=O)N2Cc3ccccc3C[C@H]2COCCCOC)c(C)c1Cl
unitAbbrev: µM
reported: 0.02

molecule: CCCCN(Cc1ccc(Cl)c(Cl)c1)C(=O)c1nn(-c2ccc(C(=O)NS(=O)(=O)c3ccc4cccc(Cl)c4c3)cc2C(=O)N2Cc3ccccc3C[C@H]2CO)c(C)c1Cl
unitAbbrev: µM
reported: 0.00849

----------
// each record: one item and its log10(IC50) for UniProtKB P10415
readoutName: log10(IC50) (log10 of the value in nM)

compound: CCCCN(CCCC)C(=O)c1nn(-c2ccc(C(=O)NS(=O)(=O)c3ccc4ccccc4c3)cc2C(=O)N2CCc3ccccc3C2)c(C)c1Cl [Example 1]
reported: 1.48
--
compound: CCCN(CCC)c1nn(-c2ccc(C(=O)NS(=O)(=O)c3ccc4cccc(Cl)c4c3)cc2C(=O)N2Cc3ccccc3C[C@H]2CO)c(C(F)(F)F)c1Cl [Example 195]
reported: 1.48
--
compound: CCCCc1c(-c2ccc(C(=O)NS(=O)(=O)c3ccc4ccccc4c3)cc2C(=O)N2CCc3ccccc3C2)c(CO)nn1-c1ccc(Oc2ccc(Cl)cc2)cc1 [Example 242]
reported: 1.30
--
compound: CCCCc1c(-c2ccc(C(=O)NS(=O)(=O)CC[Si](C)(C)C)cc2C(=O)N2CCc3ccccc3C2)c(C(=O)OCC)nn1-c1ccccc1 [Example 239]
reported: 2.76
--
compound: CCCCN(CCCC)C(=O)c1nn(-c2ccc(C(=O)NS(=O)(=O)c3ccc4ccc(OCc5ccccc5)cc4c3)cc2C(=O)N2CCc3ccccc3C2)c(C)c1Cl [Example 18]
reported: 1.00
--
compound: Cc1c(Cl)c(C(=O)N(CCC(F)(F)F)CCC(F)(F)F)nn1-c1ccc(C(=O)NS(=O)(=O)c2ccc3ccccc3c2)cc1C(=O)N1CCc2ccccc2C1 [Example 130]
reported: 1.90

----------
For Bcl-xL (Homo sapiens (Human), UniProt Q07817), measured IC50 is reported for the entries below.
readoutName: IC50 (nM)

molecule: CCCCN(Cc1ccc(Cl)c(Cl)c1)C(=O)c1nn(-c2ccc(C(=O)NS(=O)(=O)c3ccc4cccc(Cl)c4c3)cc2C(=O)N2Cc3ccccc3C[C@H]2CO)c(C)c1Cl
unitAbbrev: nM
reported: 50

molecule: CCCCN(CCCC)C(=O)c1cn(C)c(-c2ccc(C(=O)NS(=O)(=O)c3ccc4cccc(I)c4c3)cc2C(=O)N2Cc3ccccc3C[C@H]2CN)n1
unitAbbrev: nM
reported: 10

molecule: CCCCN(CCCC)C(=O)c1nn(-c2ccc(C(=O)NS(=O)(=O)c3ccc4ccc(OCCCN5CCOCC5)cc4c3)cc2C(=O)N2CCc3ccccc3C2)c(C)c1Cl
unitAbbrev: nM
reported: 40

----------
- targetOfAssay: Bcl-xL (Homo sapiens (Human), UniProt Q07817)
- Sequence (Q07817 whole entry): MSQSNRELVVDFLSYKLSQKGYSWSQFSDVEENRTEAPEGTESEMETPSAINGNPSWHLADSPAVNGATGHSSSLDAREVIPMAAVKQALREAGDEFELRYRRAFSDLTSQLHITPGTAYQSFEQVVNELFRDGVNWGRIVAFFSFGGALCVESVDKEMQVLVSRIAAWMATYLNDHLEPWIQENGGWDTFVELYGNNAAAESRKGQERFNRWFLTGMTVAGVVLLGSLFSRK
- assayMethodText: Bcl-xL/Bim Fluorescence Resonance Energy Transfer Assay (FRET)
- Format: binding
pIC50: −log10 of the molar value.
Outcome: class 1 for pIC50 of at least 7; class 0 for anything lower.

molecule: CCCN(CCC)c1ncc(Cl)c(-c2ccc(C(=O)NS(=O)(=O)c3ccc4cccc(Cl)c4c3)cc2C(=O)N2Cc3ccccc3C[C@H]2CO)n1
labelClass: class 1

molecule: CCCCN(CCCC)C(=O)c1nn(-c2ccc(C(=O)NS(=O)(=O)c3ccc4cccc(OCCN5CCOCC5)c4c3)cc2C(=O)N2CCc3ccccc3C2)c(C)c1Cl
labelClass: class 1

molecule: CCCCN(CCCC)C(=O)c1nn(-c2ccc(C(=O)NS(=O)(=O)c3ccc4ccccc4c3)cc2C(=O)N2Cc3ccccc3C[C@@H]2C(=O)O)c(C)c1Cl
labelClass: class 0

molecule: CCCCN(CCCC)C(=O)c1nn(-c2ccc(C(=O)NS(=O)(=O)c3ccc4ccc(I)cc4c3)cc2C(=O)N2CCc3ccccc3C2)c(C)c1Cl
labelClass: class 1

molecule: CCCCN(CCCC)c1ccc(Br)c(-c2ccc(C(=O)NS(=O)(=O)c3ccc4cccc(Cl)c4c3)cc2C(=O)N2CCc3ccccc3C2)n1
labelClass: class 1

----------
pIC50: −log10 of the molar value.
UniProtKB P10415: recorded pIC50 for assorted compounds
readoutName: pIC50

molecule: CCCCN(CCCC)C(=O)c1nn(-c2ccc(C(=O)NS(=O)(=O)c3ccc4ccccc4c3)cc2C(=O)N2Cc3ccccc3C[C@H]2CN2CCN(CCO)CC2)c(C)c1Cl
reported: 7.05
--
molecule: CCCCN(CCCC)C(=O)c1nn(-c2ccc(C(=O)NS(=O)(=O)c3ccc4c(c3)c(Cl)cn4CC)cc2C(=O)N2CCc3ccccc3C2)c(C)c1Cl
reported: 7.70
--
molecule: CCCCN(CCCC)C(=O)c1nn(-c2ccc(C(=O)NS(=O)(=O)c3ccc4ccccc4c3)cc2C(=O)N2CCc3ccc(C(=O)O)cc3C2)c(C)c1Cl
reported: 5.33
--
molecule: CCCCN(CCCC)C(=O)c1nn(-c2ccc(C(=O)NS(=O)(=O)c3ccc4c(ccn4Cc4ccc(Cl)c(Cl)c4)c3)cc2C(=O)N2CCc3ccccc3C2)c(C)c1Cl
reported: 7.30
--
molecule: CCCCN(CCCC)C(=O)c1nn(-c2ccc(C(=O)NS(=O)(=O)c3ccc4cccc(Cl)c4c3)cc2C(=O)N2Cc3ccccc3C[C@H]2CN)c(C)c1Cl
reported: 8.00
--
molecule: CCCCN(CCCC)C(=O)c1cc(C)n(-c2ccc(C(=O)NS(=O)(=O)c3ccc4ccccc4c3)cc2C(=O)N2CCc3ccccc3C2)n1
reported: 6.64
--
molecule: CCCCN(CCCC)C(=O)c1nn(-c2ccc(C(=O)NS(=O)(=O)c3ccc4c(c3)CCN4Cc3ccc(Cl)c(Cl)c3)cc2C(=O)N2Cc3ccccc3C[C@H]2CO)c(C)c1Cl
reported: 8.00
--
molecule: CCCCN(C(=O)c1nn(-c2ccc(C(=O)NS(=O)(=O)c3ccc4c(Cl)ccc(Cl)c4c3)cc2C(=O)N2CCc3ccccc3C2)c(C)c1Cl)c1cccc(-c2cccc(Cl)c2)c1
reported: 7.15
--
molecule: CCCCN(CCCC)C(=O)c1cn(CC(=O)O)c(-c2ccc(C(=O)NS(=O)(=O)c3cccc4ccccc34)cc2C(=O)N2CCc3ccccc3C2)n1
reported: 6.85
--
molecule: CCCCN(CCCC)C(=O)c1nn(-c2ccc(C(=O)NS(=O)(=O)c3cc(Br)c4c(ccn4CC)c3)cc2C(=O)N2Cc3ccccc3C[C@H]2CO)c(C)c1Cl
reported: 8.44
--
molecule: CCCCN(Cc1ccc(Cl)c(Cl)c1)c1ncc(Cl)c(-c2ccc(C(=O)NS(=O)(=O)c3ccc4cccc(Cl)c4c3)cc2C(=O)N2CCc3ccccc3C2)n1
reported: 8.00

----------
pIC50: −log10 of the molar value.
Observed pIC50 for Bcl-2 (Homo sapiens (Human), UniProt P10415), reported per entry below.
readoutName: pIC50

molecule: CCCCN(CCc1ccc(Cl)c(Cl)c1)C(=O)c1nn(-c2ccc(C(=O)NS(=O)(=O)c3ccc4ccccc4c3)cc2C(=O)N2CCc3ccccc3C2)c(C)c1Cl
targetOfAssay: Bcl-2 (Homo sapiens (Human), UniProt P10415)
readoutName: pIC50
reported: 7.52
--
molecule: CCCCN(CCCC)C(=O)c1nn(-c2ccc(C(=O)NS(=O)(=O)c3ccc4cccc(OCCN5CCOCC5)c4c3)cc2C(=O)N2CCc3ccccc3C2)c(C)c1Cl
targetOfAssay: Bcl-2 (Homo sapiens (Human), UniProt P10415)
readoutName: pIC50
reported: 6.96
--
molecule: CCCCN(CCCC)C(=O)c1cccc(-c2ccc(C(=O)NS(=O)(=O)c3ccc4ccccc4c3)cc2C(=O)N2CCc3ccccc3C2)n1
targetOfAssay: Bcl-2 (Homo sapiens (Human), UniProt P10415)
readoutName: pIC50
reported: 6.22

Data provenance is patent US9346795B2.
